measured_target: CYP3A4 (Homo sapiens)
Sequence (P08684 whole entry): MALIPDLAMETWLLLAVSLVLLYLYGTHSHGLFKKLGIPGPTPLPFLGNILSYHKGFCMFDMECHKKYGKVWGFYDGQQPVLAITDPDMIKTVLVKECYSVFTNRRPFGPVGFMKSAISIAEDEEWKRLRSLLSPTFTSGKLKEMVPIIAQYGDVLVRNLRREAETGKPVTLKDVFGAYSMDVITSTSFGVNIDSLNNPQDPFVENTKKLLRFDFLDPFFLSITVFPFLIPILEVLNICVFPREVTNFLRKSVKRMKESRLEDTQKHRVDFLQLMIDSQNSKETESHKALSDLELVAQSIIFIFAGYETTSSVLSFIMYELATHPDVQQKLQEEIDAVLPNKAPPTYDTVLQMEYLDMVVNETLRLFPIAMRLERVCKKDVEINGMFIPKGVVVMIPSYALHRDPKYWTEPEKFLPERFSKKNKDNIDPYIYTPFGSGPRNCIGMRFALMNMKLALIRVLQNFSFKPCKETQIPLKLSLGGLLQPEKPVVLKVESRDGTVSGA
measurement_name: IC50

[Q] Can you look up the measured IC50 of `O=c1n(-c2ccc(F)cc2)ccc2nc(COc3ccccc3)cn12` for me?
[A] > 20 µM

---

assay_overview: solubility in fasted simulated intestinal fluid
Assay type: physicochemical
setup_conditions: fasted simulated intestinal fluid (FaSSIF), pH 7.2, fassif
measurement_name: solubility (µg/mL)
Form entry: value (µg/mL) — number only.

[Q] I have this compound here, O=C1N(c2ccc(F)cc2)CCc2nc(COc3ccccc3)cn21 [4a] , and I need its recorded solubility.
[A] 6

---

measured_target: CYP2C9 (Homo sapiens, UniProt P11712)
Sequence (P11712 whole entry): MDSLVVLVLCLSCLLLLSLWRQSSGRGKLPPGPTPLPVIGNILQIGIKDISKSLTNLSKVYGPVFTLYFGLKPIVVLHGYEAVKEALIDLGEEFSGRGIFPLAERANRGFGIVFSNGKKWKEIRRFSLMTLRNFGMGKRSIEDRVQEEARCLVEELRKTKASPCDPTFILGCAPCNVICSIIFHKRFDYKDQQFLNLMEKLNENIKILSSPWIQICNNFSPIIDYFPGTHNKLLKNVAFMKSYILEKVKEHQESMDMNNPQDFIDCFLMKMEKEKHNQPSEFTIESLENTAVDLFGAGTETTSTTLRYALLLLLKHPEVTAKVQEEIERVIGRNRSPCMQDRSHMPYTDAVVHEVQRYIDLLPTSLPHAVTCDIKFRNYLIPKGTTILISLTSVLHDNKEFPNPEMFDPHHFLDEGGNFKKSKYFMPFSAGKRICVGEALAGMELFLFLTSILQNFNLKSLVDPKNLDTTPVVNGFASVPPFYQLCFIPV
measurement_name: IC50

[Q] Request - read-out IC50 | tested on CYP2C9 (Homo sapiens, UniProt P11712) | molecule O=c1n(-c2ccc(F)cc2)ccc2nc(COc3ccccc3)cn12 [3e]
[A] > 20 µM

---

Tested on: other mGlu receptors (mGlu1–4,6–8, except mGlu3)
assay_overview: selectivity profiling against the other mGlu receptors
Format: cell-based
setup_conditions: read-out: other mGlu EC50; mGlu receptors other than mGlu5 and mGlu3
pEC50: −log10 of the molar value.
Listed below: pEC50 values for each entry.

O=c1n(-c2ccc(F)cc2)ccc2nc(COc3ccccc3)cn12 = < 5.00

# context switch: different compound, same pEC50
[Q] Looking for the measured pEC50 of `O=C1N(c2ccc(F)cc2)CCc2nc(COc3ccccc3)cn21` , can you help?
[A] < 5.00

---

measured_target: CYP2D6 (Homo sapiens, UniProt P10635)
Sequence (P10635 whole entry): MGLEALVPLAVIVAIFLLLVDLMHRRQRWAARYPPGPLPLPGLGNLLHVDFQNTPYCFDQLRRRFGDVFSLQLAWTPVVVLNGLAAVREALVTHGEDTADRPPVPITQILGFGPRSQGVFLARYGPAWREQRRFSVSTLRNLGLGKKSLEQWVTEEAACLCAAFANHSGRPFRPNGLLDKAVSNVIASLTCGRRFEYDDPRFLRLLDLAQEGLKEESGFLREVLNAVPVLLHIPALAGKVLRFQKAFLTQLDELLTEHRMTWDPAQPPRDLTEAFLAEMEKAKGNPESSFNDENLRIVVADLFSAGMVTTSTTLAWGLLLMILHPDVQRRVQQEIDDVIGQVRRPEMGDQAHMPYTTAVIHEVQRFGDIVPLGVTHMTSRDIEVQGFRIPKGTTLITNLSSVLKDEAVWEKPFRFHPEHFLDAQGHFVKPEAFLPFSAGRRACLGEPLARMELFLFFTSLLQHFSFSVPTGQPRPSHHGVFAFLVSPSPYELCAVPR
pIC50: −log10 of the molar value.
measurement_name: pIC50

[Q] Give recorded pIC50 with CYP2D6 (Homo sapiens, UniProt P10635) for the following compound: `O=c1n(-c2ccc(F)cc2)ccc2nc(COc3ccccc3)cn12`
[A] < 4.70

---

Examples of molecules with documented fold increase in mGlu5 potency vs series 3 counterpart follow.
measured_target: UniProt:P31424
Sequence (P31424 21-1203): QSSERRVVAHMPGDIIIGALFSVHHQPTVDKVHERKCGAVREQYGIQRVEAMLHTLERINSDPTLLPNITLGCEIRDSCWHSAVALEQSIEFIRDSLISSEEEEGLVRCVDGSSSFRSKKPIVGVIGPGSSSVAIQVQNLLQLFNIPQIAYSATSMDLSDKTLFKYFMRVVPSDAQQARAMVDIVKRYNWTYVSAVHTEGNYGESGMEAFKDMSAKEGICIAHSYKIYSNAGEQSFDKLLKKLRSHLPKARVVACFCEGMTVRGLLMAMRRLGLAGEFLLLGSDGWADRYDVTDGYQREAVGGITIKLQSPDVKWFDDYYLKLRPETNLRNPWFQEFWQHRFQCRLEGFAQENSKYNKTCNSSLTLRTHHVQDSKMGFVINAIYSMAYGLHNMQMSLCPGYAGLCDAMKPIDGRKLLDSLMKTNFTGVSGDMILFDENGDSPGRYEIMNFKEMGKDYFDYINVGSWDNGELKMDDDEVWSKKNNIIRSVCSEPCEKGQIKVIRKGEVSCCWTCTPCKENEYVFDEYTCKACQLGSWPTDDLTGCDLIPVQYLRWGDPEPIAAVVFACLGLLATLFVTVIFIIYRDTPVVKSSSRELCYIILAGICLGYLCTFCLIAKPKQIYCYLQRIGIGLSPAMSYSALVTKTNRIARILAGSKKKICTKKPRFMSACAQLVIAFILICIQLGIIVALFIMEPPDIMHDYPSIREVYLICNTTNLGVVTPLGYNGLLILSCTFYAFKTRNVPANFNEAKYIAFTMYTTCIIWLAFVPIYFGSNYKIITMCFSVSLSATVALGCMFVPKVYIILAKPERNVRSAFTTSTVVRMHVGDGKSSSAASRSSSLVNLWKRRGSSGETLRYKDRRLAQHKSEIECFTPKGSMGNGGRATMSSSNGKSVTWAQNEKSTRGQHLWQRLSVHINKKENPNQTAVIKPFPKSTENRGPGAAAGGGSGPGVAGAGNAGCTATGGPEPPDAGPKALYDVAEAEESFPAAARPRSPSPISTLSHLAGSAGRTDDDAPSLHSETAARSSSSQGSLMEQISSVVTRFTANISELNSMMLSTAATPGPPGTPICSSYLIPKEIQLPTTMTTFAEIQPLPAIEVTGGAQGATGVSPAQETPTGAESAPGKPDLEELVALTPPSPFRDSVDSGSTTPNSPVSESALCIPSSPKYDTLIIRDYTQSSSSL
assay_overview: 'triple add' calcium mobilization assay, mGlu5 PAM/NAM/agonist modes
Format: cell-based
setup_conditions: dihydro analogue 4 vs corresponding analogue 3

Cc1cc(N2CCc3nc(COc4ccccc4)cn3C2=O)ccc1F [4c] = 1.8–2.4 fold
O=C1N(c2ccc(F)cc2)CCc2nc(COc3ccc(F)cc3)cn21 [4i] = ≤ 3.3 fold
O=C1N(c2ccc(F)cc2)CCc2nc(COc3cccc(F)c3)cn21 [4h] = ≤ 3.3 fold

Proceeding to the next molecule to report its fold increase in mGlu5 potency vs series 3 counterpart.
[Q] Request the reported fold increase in mGlu5 potency vs series 3 counterpart associated with O=C1N(c2cccc(F)c2)CCc2nc(COc3ccccc3)cn21 [4b]
[A] 1.8–2.4 fold
